Measured Percent Inhibition of CXCR4/CXCL12 Binding (400 nM peptide) values are reported for all entries that follow.
molecular target: UniProtKB P61073; experiment: CXCR4/CXCL12 binding, HTRF format, single concentration (Example 23); design: host or cells: HEK293 (Tag-lite CXCR4 cells, frozen aliquots, transient expression); conditions: 15 nM CXCR4R fluorescent probe, 3 hours, HEK293 Tag-lite CXCR4 cells
Sequence (P61073 whole entry): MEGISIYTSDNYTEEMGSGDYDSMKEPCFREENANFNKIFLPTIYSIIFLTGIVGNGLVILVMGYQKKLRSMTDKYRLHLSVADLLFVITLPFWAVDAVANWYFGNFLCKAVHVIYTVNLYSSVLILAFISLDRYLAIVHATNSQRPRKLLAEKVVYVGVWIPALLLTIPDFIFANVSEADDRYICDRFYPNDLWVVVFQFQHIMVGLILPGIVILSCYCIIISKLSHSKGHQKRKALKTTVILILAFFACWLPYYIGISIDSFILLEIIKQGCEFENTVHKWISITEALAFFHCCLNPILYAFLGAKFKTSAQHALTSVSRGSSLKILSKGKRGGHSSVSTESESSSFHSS
Peptide text beside a SMILES is read from it.
experimentalReadout: Percent Inhibition of CXCR4/CXCL12 Binding (400 nM peptide)

>>> endpointvalue("CC(C)C[C@H](NC(=O)[C@H](CO)NC(=O)[C@H](CO)NC(=O)[C@H](CCCNC(=N)N)NC(=O)[C@@H](NC(=O)[C@H](CO)NC(=O)[C@H](Cc1c[nH]cn1)NC(=O)[C@H](Cc1c[nH]cn1)NC(=O)[C@H](Cc1ccc(O)cc1)NC(=O)[C@H](CCCNC(=N)N)NC(=O)[C@H](CCC(=O)O)NC(=O)[C@@H](N)CC(C)C)C(C)C)C(=O)O [compound 22] (H-LERYHHSVRSSL-OH; N-terminus and C-terminus assumed)")
"14%"
>>> endpointvalue("CC(C)C[C@H](NC(=O)[C@H](CO)NC(=O)[C@H](CO)NC(=O)[C@H](CCCNC(=N)N)NC(=O)[C@@H](NC(=O)[C@H](CO)NC(=O)[C@H](Cc1c[nH]cn1)NC(=O)[C@H](Cc1c[nH]cn1)NC(=O)[C@H](Cc1ccc(O)cc1)NC(=O)[C@H](CCCNC(=N)N)NC(=O)[C@H](CCC(=O)O)NC(=O)[C@@H](N)CC(C)C)C(C)C)C(=O)N[C@@H](CCCNC(=N)N)C(=O)N1CCC[C@H]1C(=O)O [compound 20] (H-LERYHHSVRSSLRP-OH; N-terminus and C-terminus assumed)")
"37%"
